# Read-out: Monocyte Chemoattractant Protein-1 (MCP1), CCL2 (gene 6347)
# test protocol: BSK_3C_MCP1: BioMAP Diversity Plus: 3C Assay for Monocyte Chemoattractant Protein-1 (MCP1) Biomarker Activity (AID 2283017)
# test settings: primary human endothelial cells (HUVEC); actives raise or lower the signal
Calls of active or inactive are those of the source. Rule for the calls: active = hit-call score of the fitted dose curve at least 0.9, where 1 is the maximum; inactive = score below 0.9.
Mark one answer only. Choices: active, inactive

Illustrative cases are given below, each with its answer.
# compound, group label
rows = [
    ("C#CCOC(=O)[C@@H](C)Oc1ccc(Oc2ncc(Cl)cc2F)cc1", "inactive"),
    ("CCCOC(=O)c1ccc(C(=O)OCCC)nc1", "inactive"),
    ("CCCN(CCC)C(=O)SCC", "inactive"),
    ("CCOC(=O)c1ccc(O)cc1", "inactive"),
    ("CCCOC(=O)NCCCN(C)C", "inactive"),
]

Q) // return assay outcome for Cc1nn(C)c(Oc2ccccc2)c1C=NOCc1ccc(C(=O)OC(C)(C)C)cc1
A) active

Q) Query: recorded result category for CCOC(=O)C(C)Oc1ccc(Oc2nc3ccc(Cl)cc3o2)cc1 (centres undefined) in this test
A) active

Q) Lab log entry: CC(C)CCCCCCc1ccc(O)cc1 — outcome as called in the assay?
A) active
